Below, each entry is listed alongside its reported % inhibition of SMAD7 mRNA expression.
- Tested on: human SMAD7 mRNA
- METHOD DESCRIPTION: Dose-dependent inhibition of human SMAD7 mRNA expression in Hep3B cells (Example 3, Study 1 and 2)
- Format: cell-based
- STATED CONDITIONS: 1250.0 nM, electroporation, approximately 16 hours, Study 1
Strand notation (5' to 3'): a small letter for the sugar, then the base; units joined by * are phosphorothioate-linked, units joined directly phosphodiester-linked; [ ] holds rarer units or linkages, { } end groups; capitals alone tell only the bases. e = 2'-O-(2-methoxyethyl) (MOE); [5mC] = 5-methylcytosine; d = 2'-deoxy (DNA)

SUBSTANCE	% inhibition of SMAD7 mRNA expression / %
771891 (antisense e[5mC]*eT*e[5mC]*e[5mC]*e[5mC]*dA*dA*dG*d[5mC]*d[5mC]*dT*dA*d[5mC]*dA*dT*eA*eT*eT*eT*e[5mC]) [compound 771891]	0
771487 (antisense e[5mC]*eT*eG*e[5mC]*eA*d[5mC]*dG*dG*dT*dA*dA*dA*dG*d[5mC]*d[5mC]*e[5mC]*eG*eT*e[5mC]*e[5mC]) [compound 771487]	0
771821 (antisense eG*eT*eT*e[5mC]*e[5mC]*dT*dT*dA*dT*dA*dG*dA*dT*dT*dA*eT*e[5mC]*e[5mC]*eA*eA) [compound 771821]	9
771552 (antisense e[5mC]*eT*eT*eG*eG*dA*dT*dT*dT*d[5mC]*dT*dG*d[5mC]*dT*dT*e[5mC]*e[5mC]*e[5mC]*e[5mC]*eT) [compound 771552]	25
771795 (antisense e[5mC]*eG*eT*e[5mC]*eT*dG*d[5mC]*dG*dG*d[5mC]*dA*dA*dA*dA*d[5mC]*e[5mC]*e[5mC]*eA*e[5mC]*e[5mC]) [compound 771795]	22
771937 (antisense eT*e[5mC]*e[5mC]*eA*eG*dT*dG*d[5mC]*dT*dT*dG*dT*dG*d[5mC]*dA*eT*eG*eT*eG*e[5mC]) [compound 771937]	0
771799 (antisense e[5mC]*eT*eT*e[5mC]*e[5mC]*dA*dA*d[5mC]*dA*d[5mC]*dA*dT*dG*d[5mC]*dT*e[5mC]*eT*eG*e[5mC]*eA) [compound 771799]	8
771776 (antisense e[5mC]*eT*e[5mC]*eA*eG*d[5mC]*dA*dA*dG*d[5mC]*dT*d[5mC]*dA*dG*dT*eT*e[5mC]*e[5mC]*eT*eG) [compound 771776]	13
771641 (antisense eA*eG*eT*eT*eA*dG*dG*dT*dG*dT*d[5mC]*dA*dG*d[5mC]*d[5mC]*eT*eA*eG*eG*eA) [compound 771641]	16
771825 (antisense e[5mC]*eT*e[5mC]*eT*e[5mC]*dA*dT*dT*dT*d[5mC]*dT*dG*dG*dA*dA*e[5mC]*e[5mC]*e[5mC]*eA*e[5mC]) [compound 771825]	29
771849 (antisense e[5mC]*eT*eA*eG*eG*d[5mC]*dT*dG*dG*dT*d[5mC]*dA*d[5mC]*dT*dT*e[5mC]*e[5mC]*eA*e[5mC]*eT) [compound 771849]	0
771831 (antisense e[5mC]*eG*eA*eT*e[5mC]*dA*dT*dT*dT*dT*d[5mC]*dT*dA*d[5mC]*dA*e[5mC]*e[5mC]*eT*eT*eT) [compound 771831]	13
